Origin of values: patent US20210154281A1

- Test system: B16F10 melanoma tumor cell line
- assay: Cell death by AnnexinV/DAPI staining 48 hours after drug treatment
- Format: cell-based, mouse
- run conditions: Mus musculus, B16-F10; 10 uM, 48 hours; read-out: AnnV+DAPI+ (%) Mean
endpoint: cytotoxicity at 10 µM (%)
Numbers only, in %.

// solved cases for cytotoxicity at 10 µM follow
>>> value_reported("COc1cccc2c1C(=O)c1c(O)c3c(c(O)c1C2=O)C[C@@](O)(C(=O)CO)C[C@@H]3O[C@H]1C[C@H](N)[C@H](O)[C@H](C)O1")
48
>>> value_reported("O=C1c2c(O)ccc(O)c2C(=O)c2c(NCCNCCO)ccc(NCCNCCO)c21")
52.4
>>> value_reported("O=c1[nH]cc(F)c(=O)[nH]1")
5.29

Tell us which cytotoxicity at 10 µM value is on record for COc1cc([C@@H]2c3cc4c(cc3[C@@H](O[C@@H]3O[C@@H]5CO[C@@H](C)O[C@H]5[C@H](O)[C@H]3O)[C@H]3COC(=O)[C@H]23)OCO4)cc(OC)c1O [Etop, etoposide]
51

* * *

- assay: Cell viability (survival) assay with CellTiter-Glo, 48 hours
- Assay type: cell-based, mouse
- run conditions: mouse, B16F10 melanoma tumor cells; 1 uM, 48 hours, normalized to DMSO-treated control cells
Kindly supply the reported viability at 48 h, 1 µM values for the records listed here.

>>> value_reported("CC(=O)O[C@H]1C(=O)[C@@]2(C)[C@H]([C@H](OC(=O)c3ccccc3)[C@]3(O)C[C@H](OC(=O)[C@H](O)[C@@H](NC(=O)c4ccccc4)c4ccccc4)C(C)=C1C3(C)C)[C@]1(OC(C)=O)CO[C@@H]1C[C@@H]2O [Pac, paclitaxel]")
"74%"

// next item, viability at 48 h, 1 µM requested
Tell us which viability at 48 h, 1 µM value is on record for CCc1c2c(nc3ccc(OC(=O)N4CCC(N5CCCCC5)CC4)cc13)-c1cc3c(c(=O)n1C2)COC(=O)[C@]3(O)CC [Iri, irinotecan]
97.9%

* * *

Kindly supply the reported viability at 10 µM values for the records listed here.
- Test system: B16F10 melanoma tumor cell line
- assay: Cell death by AnnexinV/DAPI staining 48 hours after drug treatment
- Type: cell-based, mouse
- run conditions: Mus musculus, B16-F10; 10 uM, 48 hours; read-out: AnnV−DAPI− (%) Mean
One number for each entry, in %.

>>> value_reported("O=c1[nH]cc(F)c(=O)[nH]1 [5-FU, 5-fluorouracil]")
84

Record viability at 10 µM per entry; entries follow.
1. O=C1c2c(O)ccc(O)c2C(=O)c2c(NCCNCCO)ccc(NCCNCCO)c21 [Mito, mitoxantrone]
2. COc1cccc2c1C(=O)c1c(O)c3c(c(O)c1C2=O)C[C@@](O)(C(=O)CO)C[C@@H]3O[C@H]1C[C@H](N)[C@H](O)[C@H](C)O1 [Dox, doxorubicin]
3. COc1cc([C@@H]2c3cc4c(cc3[C@@H](O[C@@H]3O[C@@H]5CO[C@@H](C)O[C@H]5[C@H](O)[C@H]3O)[C@H]3COC(=O)[C@H]23)OCO4)cc(OC)c1O [Etop, etoposide]

1. 21.1
2. 20.4
3. 30.9

* * *

Kindly supply the reported viability at 48 h, 0.25 µM values for the records listed here.
- assay: Cell viability (survival) assay with CellTiter-Glo, 48 hours
- Assay type: cell-based, mouse
- run conditions: mouse, B16F10 melanoma tumor cells; 0.25 uM, 48 hours, normalized to DMSO-treated control cells
Numbers only, in %.

>>> value_reported("CCc1c2c(nc3ccc(OC(=O)N4CCC(N5CCCCC5)CC4)cc13)-c1cc3c(c(=O)n1C2)COC(=O)[C@]3(O)CC")
99.8

// next item, viability at 48 h, 0.25 µM requested
Tell us which viability at 48 h, 0.25 µM value is on record for CC[C@@]1(O)C(=O)OCc2c1cc1n(c2=O)Cc2cc3ccccc3nc2-1
77.6
